For reference, the following Ki results for Gonadotropin-releasing hormone receptor (Homo sapiens) were taken from various sources.

The cases that follow already have their Ki on record.
Cc1cc(C(F)(F)F)ncc1-c1cc(S(=O)(=O)N2CCCCc3ccccc32)c(OCCCC(=O)O)cc1Cl ... ≤ 100 nM
COc1ccccc1N(C)C(=O)c1ccc(Cl)c(-c2cnc(C(F)(F)F)cc2C#N)c1 ... ≤ 100 nM
COc1cccc(C)c1N(C)C(=O)c1cc(-c2cnc(C(F)(F)F)cc2C#N)c(Cl)cc1OCCCN ... ≤ 100 nM
COc1c(Cl)cccc1N(C)C(=O)c1ccc(Cl)c(-c2ncc(C)cc2C)c1 ... ≤ 100 nM
Cc1cc(C#N)ncc1-c1cc(C(=O)N(C)c2c(C)cccc2OCCC(=O)O)ccc1Cl ... ≤ 100 nM
Cc1c(-c2ccccc2)c(=O)n2c(CN(C)Cc3ccco3)c(C(C)(C)C)nc2n1Cc1ccccc1F ... < 1000 nM
Cc1cc(Cl)c(-c2cc(C(=O)N(C)c3cccc(C(F)(F)F)c3C)ccc2Cl)cn1 ... ≤ 100 nM
Cc1cc(Cl)ncc1-c1cc(C(=O)N(C)c2ccccc2F)ccc1Cl ... ≤ 100 nM
COc1ccccc1CCOc1cc(Cl)c(-c2cnc(C(F)(F)F)cc2C#N)cc1C(=O)N(C)c1ccccc1OC ... ≤ 100 nM
N#Cc1cc(C(F)(F)F)ncc1-c1cc(S(=O)(=O)N2CCOCc3ccccc32)ccc1Cl ... ≤ 100 nM

What value of measured Ki is listed for CC1(C)CCN(S(=O)(=O)c2cc(-c3cnc(C(F)(F)F)cc3C#N)c(Cl)cc2OCCCCO)c2ccccc21 ?
≤ 100 nM

What value of measured Ki is listed for CCOC(=O)CCOc1ccccc1N(C)C(=O)c1ccc(Cl)c(-c2cnc(C(F)(F)F)cc2C#N)c1 ?
≤ 100 nM

What value of measured Ki is listed for COc1cccc(C)c1N(C)C(=O)c1cc(-c2cnc(C(F)(F)F)cc2C#N)c(Cl)cc1OCCCCO ?
≤ 100 nM
